- System: Aspergillus niger
- protocol: Antimicrobial activity against Aspergillus niger after 7 days by serial dilution method
- Format: functional
measure name: -logMIC
One number for each entry.

{"columns": ["molecule", "assay target", "-logMIC"],
 "data": [
  ["NNC(=O)c1ccncc1 [ISONIAZID]", "Aspergillus niger", 2.04]
]}

Your task in this section: give -logMIC for each listed record.
1. O=C(N/N=C/c1c[nH]c2ccccc12)c1ccncc1
2. O=C(NNC(=O)c1ccc(Cl)cc1)c1ccncc1
3. COc1cc(/C=N/N(C(=O)c2ccccc2)C(=O)c2ccncc2)ccc1O
4. O=C(N/N=C/c1ccccc1O)c1ccncc1 [SALINAZID]

Found:
1: 2.32; 2: 1.74; 3: 2.48; 4: 2.29

----------
- protocol: Cytotoxicity against Homo sapiens (human) MT4 cells
- Assay type: cell-based
Consider the following molecules; for each one, report its CC50.

{"columns": ["molecule", "reported result"],
 "data": [
  ["Cc1ccc(/C=N/NC(=O)c2ccncc2)cc1", "25 µg/mL"],
  ["CSc1ccc(/C=N/NC(=O)c2ccncc2)cc1", "59 µg/mL"],
  ["Cc1cn([C@H]2C[C@H](N=[N+]=[N-])[C@@H](CO)O2)c(=O)[nH]c1=O", "> 25 µg/mL"],
  ["COc1cccc(OC)c1/C=N/N(C(=O)c1ccccc1)C(=O)c1ccncc1", "12 µg/mL"],
  ["O=C(NNC(=O)c1cc([N+](=O)[O-])ccc1Cl)c1ccncc1", "116 µg/mL"],
  ["C/C=C/C=N/NC(=O)c1ccncc1", "11 µg/mL"]
]}

Your task in this section: give CC50 for each listed record.
1. O=C(N/N=C/c1ccccc1O)c1ccncc1
2. COc1cc(/C=N/NC(=O)c2ccncc2)ccc1O [FTIVAZIDE]
3. CCOc1cc(/C=N/NC(=O)c2ccncc2)ccc1O
4. O=C(NNC(=O)c1ccc(Cl)cc1)c1ccncc1

Found:
["2.52 µg/mL", "≥ 89 µg/mL", "102 µg/mL", "> 120 µg/mL"]

----------
- System: Sindbis virus
- protocol: Antiviral activity against Sindbis virus infected Vero cells assessed as inhibition of virus-induced cytopathicity
- Type: functional, organism-based
Consider the following compounds; for each one, report its EC50.

Worked examples, 2 compounds total:
{"columns": ["structure notation", "assay target", "EC50"],
 "data": [
  ["CCOc1cc(/C=N/NC(=O)c2ccncc2)ccc1O", "Sindbis virus", "> 100 µg/mL"],
  ["CSc1ccc(/C=N/N(C(=O)c2ccccc2)C(=O)c2ccncc2)cc1", "Sindbis virus", "> 100 µg/mL"]
]}

Your task in this section: give EC50 for each listed record.
1. O=C(N/N=C/c1c[nH]c2ccccc12)c1ccncc1
2. COc1cc(/C=N/N(C(=O)c2ccccc2)C(=O)c2ccncc2)ccc1O
3. C/C=C/C=N/NC(=O)c1ccncc1
4. CCOc1cc(/C=N/N(C(=O)c2ccccc2)C(=O)c2ccncc2)ccc1O
5. COc1cc(/C=N/NC(=O)c2ccncc2)cc(OC)c1OC
6. COc1cccc(OC)c1/C=N/NC(=O)c1ccncc1
7. O=C(N/N=C/c1c(O)ccc2ccccc12)c1ccncc1
8. Cc1ccc(/C=N/N(C(=O)c2ccccc2)C(=O)c2ccncc2)cc1

Found:
["> 100 µg/mL", "> 100 µg/mL", "> 20 µg/mL", "> 100 µg/mL", "> 100 µg/mL", "> 20 µg/mL", "> 0.8 µg/mL", "> 20 µg/mL"]

Lookup: State measured EC50 of the compound COc1cccc(OC)c1/C=N/N(C(=O)c1ccccc1)C(=O)c1ccncc1 with Sindbis virus.
Found: > 20 µg/mL

----------
- protocol: Cytotoxicity against Chlorocebus aethiops (African green monkey) Vero cells assessed as alteration in cell morphology
- Type: cell-based
- condition info: chlorocebus sabaeus
Consider the following compounds; for each one, report its MCC.

Worked examples, 5 compounds total:
{"columns": ["compound", "measure name", "reported result"],
 "data": [
  ["COc1cccc(OC)c1/C=N/NC(=O)c1ccncc1", "MCC", "100 µg/mL"],
  ["COc1cc(/C=N/N(C(=O)c2ccccc2)C(=O)c2ccncc2)ccc1O", "MCC", "≥ 100 µg/mL"],
  ["COc1cc(/C=N/NC(=O)c2ccncc2)ccc1O [FTIVAZIDE]", "MCC", "> 100 µg/mL"],
  ["CCOc1cc(/C=N/N(C(=O)c2ccccc2)C(=O)c2ccncc2)ccc1O", "MCC", "> 100 µg/mL"],
  ["O=C(N/N=C/c1c(O)ccc2ccccc12)c1ccncc1", "MCC", "≥ 0.8 µg/mL"]
]}

Your task in this section: give MCC for each listed record.
1. COc1cccc(OC)c1/C=N/N(C(=O)c1ccccc1)C(=O)c1ccncc1
2. O=C(N/N=C/c1c[nH]c2ccccc12)c1ccncc1
3. CSc1ccc(/C=N/N(C(=O)c2ccccc2)C(=O)c2ccncc2)cc1
4. C/C=C/C=N/NC(=O)c1ccncc1
5. CSc1ccc(/C=N/NC(=O)c2ccncc2)cc1
6. COc1cc(/C=N/NC(=O)c2ccncc2)cc(OC)c1OC
7. Cc1ccc(/C=N/NC(=O)c2ccncc2)cc1
8. CCOc1cc(/C=N/NC(=O)c2ccncc2)ccc1O

Found:
1: 100 µg/mL; 2: > 100 µg/mL; 3: ≥ 100 µg/mL; 4: 100 µg/mL; 5: ≥ 100 µg/mL; 6: > 100 µg/mL; 7: ≥ 20 µg/mL; 8: > 100 µg/mL

Lookup: Specify reported MCC for the compound shown: Cc1ccc(/C=N/N(C(=O)c2ccccc2)C(=O)c2ccncc2)cc1
Found: ≥ 20 µg/mL

----------
Consider the following molecules; for each one, report its EC50.
- System: Human respirovirus 3
- protocol: Antiviral activity against Human parainfluenza virus 3 infected Vero cells assessed as inhibition of virus-induced cytopathicity
- Type: functional, organism-based
- condition info: Human respirovirus 3, Vero

{"columns": ["molecule", "reported result"],
 "data": [
  ["O=C(N/N=C/c1c(O)ccc2ccccc12)c1ccncc1", "> 0.8 µg/mL"]
]}

Your task in this section: give EC50 for each listed record.
1. COc1cccc(OC)c1/C=N/NC(=O)c1ccncc1
2. Cc1ccc(/C=N/N(C(=O)c2ccccc2)C(=O)c2ccncc2)cc1
3. CCOc1cc(/C=N/NC(=O)c2ccncc2)ccc1O

Found:
> 20 µg/mL
> 20 µg/mL
> 100 µg/mL

----------
- Test system: Coxsackievirus B4
- protocol: Antiviral activity against Human coxsackievirus B4 infected Vero cells assessed as inhibition of virus-induced cytopathicity
- Format: functional, organism-based
- condition info: Enterovirus B
Consider the following compounds; for each one, report its EC50.

Worked examples, 3 compounds total:
{"columns": ["compound", "measure name", "reported result"],
 "data": [
  ["COc1cccc(OC)c1/C=N/NC(=O)c1ccncc1", "EC50", "> 20 µg/mL"],
  ["Cc1ccc(/C=N/NC(=O)c2ccncc2)cc1", "EC50", "> 20 µg/mL"],
  ["COc1cc(/C=N/NC(=O)c2ccncc2)ccc1O [FTIVAZIDE]", "EC50", "> 100 µg/mL"]
]}

Your task in this section: give EC50 for each listed record.
1. O=C(N/N=C/c1c[nH]c2ccccc12)c1ccncc1
2. CSc1ccc(/C=N/N(C(=O)c2ccccc2)C(=O)c2ccncc2)cc1

Found:
["45 µg/mL", "9 µg/mL"]

Your task in this section: give EC50 for each listed record.
1. Cc1ccc(/C=N/N(C(=O)c2ccccc2)C(=O)c2ccncc2)cc1
2. CCOc1cc(/C=N/NC(=O)c2ccncc2)ccc1O
3. C/C=C/C=N/NC(=O)c1ccncc1
4. CCOc1cc(/C=N/N(C(=O)c2ccccc2)C(=O)c2ccncc2)ccc1O
5. COc1cccc(OC)c1/C=N/N(C(=O)c1ccccc1)C(=O)c1ccncc1

Found:
> 20 µg/mL
> 100 µg/mL
> 20 µg/mL
> 100 µg/mL
> 20 µg/mL

Your task in this section: give EC50 for each listed record.
1. CSc1ccc(/C=N/NC(=O)c2ccncc2)cc1
2. O=C(N/N=C/c1c(O)ccc2ccccc12)c1ccncc1
3. COc1cc(/C=N/NC(=O)c2ccncc2)cc(OC)c1OC
4. COc1cc(/C=N/N(C(=O)c2ccccc2)C(=O)c2ccncc2)ccc1O

Found:
1: 9 µg/mL; 2: > 0.8 µg/mL; 3: > 100 µg/mL; 4: > 100 µg/mL

----------
Consider the following compounds; for each one, report its MCC.
- protocol: Cytotoxicity against Homo sapiens (human) HeLa cells
- Assay type: cell-based
Answers are plain numbers, in µg/mL.

Worked examples, 4 compounds total:
{"columns": ["compound", "MCC [µg/mL]"],
 "data": [
  ["COc1cc(/C=N/N(C(=O)c2ccccc2)C(=O)c2ccncc2)ccc1O", 100],
  ["C/C=C/C=N/NC(=O)c1ccncc1", 100],
  ["COc1cccc(OC)c1/C=N/N(C(=O)c1ccccc1)C(=O)c1ccncc1", 20],
  ["COc1cc(/C=N/NC(=O)c2ccncc2)ccc1O [FTIVAZIDE]", 100]
]}

Your task in this section: give MCC for each listed record.
1. Cc1ccc(/C=N/NC(=O)c2ccncc2)cc1
2. O=C(N/N=C/c1c(O)ccc2ccccc12)c1ccncc1
3. Cc1ccc(/C=N/N(C(=O)c2ccccc2)C(=O)c2ccncc2)cc1
4. CSc1ccc(/C=N/NC(=O)c2ccncc2)cc1
5. COc1cccc(OC)c1/C=N/NC(=O)c1ccncc1

Found:
[100, 0.2, 100, 100, 100]

Recorded values, source ChEMBL document CHEMBL3046007.
